# Target or test system: T1, human IL-10 receptor (hIL-10R alpha and beta chains) on HEK-Blue IL-10 reporter cells (human, UniProt Q13651 22-578; Q08334 20-325)
# T1 sequence 1: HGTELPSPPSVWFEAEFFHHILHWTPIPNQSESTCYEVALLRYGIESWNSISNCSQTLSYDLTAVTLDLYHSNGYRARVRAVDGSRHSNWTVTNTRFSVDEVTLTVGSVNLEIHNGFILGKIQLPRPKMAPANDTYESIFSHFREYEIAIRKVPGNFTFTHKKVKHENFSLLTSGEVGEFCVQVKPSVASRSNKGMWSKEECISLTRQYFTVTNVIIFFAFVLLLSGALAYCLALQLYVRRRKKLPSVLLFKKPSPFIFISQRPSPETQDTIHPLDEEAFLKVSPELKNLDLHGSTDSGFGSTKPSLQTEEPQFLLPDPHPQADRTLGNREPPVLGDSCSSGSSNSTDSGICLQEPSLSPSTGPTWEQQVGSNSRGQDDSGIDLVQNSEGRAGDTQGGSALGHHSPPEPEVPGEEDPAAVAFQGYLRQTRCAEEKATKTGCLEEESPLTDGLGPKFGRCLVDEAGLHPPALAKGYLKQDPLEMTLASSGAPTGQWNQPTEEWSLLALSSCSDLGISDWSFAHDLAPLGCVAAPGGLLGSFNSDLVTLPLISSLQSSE
# T1 sequence 2: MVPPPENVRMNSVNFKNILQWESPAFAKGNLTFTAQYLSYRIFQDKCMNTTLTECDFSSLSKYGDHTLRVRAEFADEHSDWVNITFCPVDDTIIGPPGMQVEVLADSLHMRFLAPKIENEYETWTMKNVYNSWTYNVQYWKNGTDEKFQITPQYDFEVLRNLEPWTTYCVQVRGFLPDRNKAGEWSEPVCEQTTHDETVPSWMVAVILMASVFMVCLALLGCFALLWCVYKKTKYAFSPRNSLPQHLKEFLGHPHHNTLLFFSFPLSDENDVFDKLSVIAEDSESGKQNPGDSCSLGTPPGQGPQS
# Method notes: cell-based or functional assay
Metric name: Abs 630 (100 nM)
Answer with the figure and its unit, nothing else.

Sample answers from the record:
Binder	Observed
IL10R binding molecule of SEQ ID NO: 328 (bispecific antibody) QVQLQESGGGSVQAGGSLRLSCTVSRYTASVNYMGWFRQAPGKEREGVATIFTGAGTTYYANSVKGRFTISRDNAKNTAYLQMNSLKPEDTAIYYCAVDFRGGLLYRPAYEYTYRGQGTQVTVSSGGGSQVQLQESGGGSVQAGGSLRLSCAASGYTYSMYCMGWFRQAPGKEREGVAQINSDGSTSYADSVKGRFTISKDNAKNTLYLQMNSLKPEDTAMYYCAADSRVYGGSWYERLCGPYTYEYNYWGQGTQVTVSSASHHHHHH	0.34 Abs 630
IL10R binding molecule of SEQ ID NO: 260 (bispecific antibody) QVQLQESGGGSVQAGGSLRLSCAASRYLYSIDYMAWFRQSPGKEREPVAVIYTASGATFYPDSVKGRFTISQDNAKMTVYLQMNSLKSEDTAMYYCAAVRKTDSYLFDAQSFTYWGQGTQVTVSSGGGSQVQLQESGGGSVEAGGSLRLSCAASGYTHSSYCMGWFRQAPGKEREGVAAIDVDGSTTYADSVKGRFTISKDNAKNTLYLQMNSLKPEDTGMYYCAAEFADCSSNYFLPPGAVRYWGQGTQVTVSSASHHHHHH	0.39 Abs 630

Would you kindly look at the next entry?
Enquiry: Report Abs 630 (100 nM) for IL10R binding molecule of SEQ ID NO: 321 (bispecific antibody) QVQLQESGGGSVQAGGSLRLSCAASRYTYNSYCMGWFRQAPGKEREGVATIDSDGMTRYADSVKGRFTISKDNAKNTLYLQMNSLKPEDTAMYYCAADADCTIAAMTTNPLGQGTQVTVSSGGGSQVQLQESGGGSVQAGGSLRLSCAASGYTYSMYCMGWFRQAPGKEREGVAQINSDGSTSYADSVKGRFTISKDNAKNTLYLQMNSLKPEDTAMYYCAADSRVYGGSWYERLCGPYTYEYNYWGQGTQVTVSSASHHHHHH please.
Return: 0.4 Abs 630
